- tested.on: Dual specificity protein kinase CLK3 (Homo sapiens) (UniProt P49761)
- Sequence (P49761 whole entry, looked up): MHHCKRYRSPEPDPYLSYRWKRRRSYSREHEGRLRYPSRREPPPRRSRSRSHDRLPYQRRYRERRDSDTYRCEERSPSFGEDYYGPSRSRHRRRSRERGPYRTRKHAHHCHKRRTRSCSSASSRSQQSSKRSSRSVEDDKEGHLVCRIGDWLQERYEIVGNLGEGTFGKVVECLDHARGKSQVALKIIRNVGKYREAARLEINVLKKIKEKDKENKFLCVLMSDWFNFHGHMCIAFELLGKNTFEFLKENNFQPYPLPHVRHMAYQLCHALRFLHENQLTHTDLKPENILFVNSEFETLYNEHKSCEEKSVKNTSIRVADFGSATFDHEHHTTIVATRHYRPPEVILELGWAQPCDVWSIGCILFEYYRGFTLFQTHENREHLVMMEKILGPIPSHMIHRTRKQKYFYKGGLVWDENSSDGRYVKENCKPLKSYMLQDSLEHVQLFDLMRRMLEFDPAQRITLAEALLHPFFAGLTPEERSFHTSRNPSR
- run.conditions: at 1 µM
endpoint.name: inhibition (%)
Give bare numbers, in %.

Solved cases below.
structure.notation	units.symbol	reading
NS(=O)(=O)c1ccc(N/N=C2\C(=O)Nc3ccc(C(=O)NCc4ccncc4)cc32)cc1	%	3.91
O=C(O[C@H]1CN[C@H](C#Cc2cc3ncnc(Nc4ccc5c(ccn5Cc5cc(F)ccc5F)c4)c3s2)C1)N1CCOCC1	%	1.89
COc1cc(Nc2ncc(-c3ccccc3)o2)cc(OC)c1	%	1.09

I have 3 molecules here; please give me inhibition for each one.
1. N#Cc1ccc2c(-c3ccnc(NC4CC4)n3)c(-c3ccc(F)cc3)nn2c1
2. CCN1CCC(C(=O)Nc2n[nH]c3nnc(-c4cccc(F)c4F)cc23)CC1
3. CS(=O)(=O)CCNCc1ccc(-c2ccc3ncnc(Nc4ccc(OCc5cccc(C(F)(F)F)c5)cc4)c3c2)o1

Ans.
-0.84
0.77
1.18

Give inhibition for all molecules that follow.
1. N#Cc1cccc(Nc2ncc(-c3ccccc3)o2)c1
2. Fc1cccc(COc2ccc(Nc3ncncc3C#Cc3ccccc3)cc2Cl)c1
3. COc1cccc(-n2ncc3c(N/N=C/c4ccc(C(=O)NCCN(C)C)cc4)ncnc32)c1

Ans.
1. 1.97
2. 2.05
3. 31.7

---

- tested.on: Protein kinase C beta type (Homo sapiens)
- run.conditions: at 1 µM
- Description: GSK_PKIS: PKC-beta1 (splice variant) mean inhibition at 1 uM [Nanosyn]
endpoint.name: inhibition (%)
Give bare numbers, in %.

Here are 4 compounds together with their reported answers.
structure.notation	tested.on	reading
COc1cc(N2CCN(C(C)C)CC2)ccc1Nc1nc(Nc2cccc3ncccc23)c2cc[nH]c2n1	Protein kinase C beta type (Homo sapiens)	2.34
CN1CCC(n2cnc(-c3ccc(F)cc3)c2-c2ccnc(NCCO)n2)CC1	Protein kinase C beta type (Homo sapiens)	5.76
CS(=O)(=O)CCNCc1ccc(-c2ccc3ncnc(Nc4ccc(OCc5ccccc5)cc4)c3c2)o1	Protein kinase C beta type (Homo sapiens)	0.21
CS(=O)(=O)Nc1ccc(-c2cc(-c3ccccc3)cc(C(N)=O)c2N)cc1	Protein kinase C beta type (Homo sapiens)	-0.92

Shifting focus to the compound that follows.
Qu. For the compound `COc1cccc(-n2ncc3c(N/N=C/c4ccc(C(=O)NCCN(C)C)cc4)ncnc32)c1` , what inhibition is on record?
Ans. 6.99

---

Can you tell me inhibition for the items I'm about to list?
- tested.on: CDK3/Cyclin E (Homo sapiens) (UniProt P24864+Q00526)
- Sequence (P24864 whole entry, looked up): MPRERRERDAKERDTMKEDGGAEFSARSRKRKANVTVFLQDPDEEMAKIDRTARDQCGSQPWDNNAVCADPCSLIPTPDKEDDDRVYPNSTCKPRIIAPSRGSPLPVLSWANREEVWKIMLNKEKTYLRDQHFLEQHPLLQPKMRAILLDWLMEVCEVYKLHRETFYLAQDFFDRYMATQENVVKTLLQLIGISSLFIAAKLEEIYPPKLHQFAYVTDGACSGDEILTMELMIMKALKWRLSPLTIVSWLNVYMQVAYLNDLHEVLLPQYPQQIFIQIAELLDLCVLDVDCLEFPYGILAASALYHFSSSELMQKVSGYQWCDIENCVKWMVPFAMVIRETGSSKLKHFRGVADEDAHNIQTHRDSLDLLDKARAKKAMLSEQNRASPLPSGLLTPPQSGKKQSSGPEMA
- Sequence (Q00526 whole entry, looked up): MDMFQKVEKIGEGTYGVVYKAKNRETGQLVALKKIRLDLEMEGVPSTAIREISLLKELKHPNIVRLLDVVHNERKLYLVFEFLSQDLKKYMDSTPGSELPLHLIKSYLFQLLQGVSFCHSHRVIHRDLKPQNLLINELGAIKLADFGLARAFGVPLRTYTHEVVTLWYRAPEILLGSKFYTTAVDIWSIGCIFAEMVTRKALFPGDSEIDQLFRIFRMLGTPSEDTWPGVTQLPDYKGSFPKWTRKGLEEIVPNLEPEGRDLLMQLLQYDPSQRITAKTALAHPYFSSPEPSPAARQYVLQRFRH
- run.conditions: at 0.1 µM
Numbers only, in %.

Some compounds with recorded inhibition:
structure.notation	tested.on	inhibition [%]
O=C1Nc2ccccc2/C1=C1\CCc2cc(O)ccc21	CDK3/Cyclin E (Homo sapiens) (UniProt P24864+Q00526)	4.58
Cc1cc(O)cc(C)c1/C=C/c1cncc(C(=O)OC(C)(C)C)c1	CDK3/Cyclin E (Homo sapiens) (UniProt P24864+Q00526)	0.28
c1ccc(-c2n[nH]cc2-c2ccnc(-c3ccc(OCCn4ccnc4)cc3)c2)nc1	CDK3/Cyclin E (Homo sapiens) (UniProt P24864+Q00526)	2.33
COc1cccc(Nc2nccc(-c3cnn4ncccc34)n2)c1	CDK3/Cyclin E (Homo sapiens) (UniProt P24864+Q00526)	42.2
CC1(C)CC(n2cnc(-c3ccc(F)cc3)c2-c2ccnc(N)n2)CC(C)(C)N1	CDK3/Cyclin E (Homo sapiens) (UniProt P24864+Q00526)	2.06
CS(=O)(=O)CCNCc1ccc(-c2ccc3ncnc(Nc4ccc(OCc5cccc(C(F)(F)F)c5)cc4)c3c2)o1	CDK3/Cyclin E (Homo sapiens) (UniProt P24864+Q00526)	-1.58

# return inhibition for each item in the list
1. CNC(=O)c1cncc(/C=C/c2ccccc2C)c1
2. CS(=O)(=O)CCNCc1ccc(-c2ccc3ncnc(Nc4ccc(OCc5ccccc5)cc4)c3c2)o1
3. NS(=O)(=O)c1ccc(N/N=C2\C(=O)Nc3cccc(CCc4ccncc4)c32)cc1
4. Fc1cccc(COc2ccc(Nc3ncncc3C#Cc3ccccc3)cc2Cl)c1
5. O=C(O[C@H]1CN[C@H](C#Cc2cc3ncnc(Nc4ccc5c(ccn5Cc5cc(F)ccc5F)c4)c3s2)C1)N1CCOCC1
6. COc1ccc(-c2nn3ncccc3c2-c2ccnc(Nc3ccc(F)c(F)c3)n2)cc1
7. NS(=O)(=O)c1ccc(N/N=C2\C(=O)Nc3ccc(C(=O)NCc4ccncc4)cc32)cc1

Ans.
1: 7.08; 2: -1.1; 3: 32.4; 4: 1.59; 5: 4.08; 6: 1.3; 7: 53.2

Report inhibition for each item below.
1. COc1cccc(-n2ncc3c(N/N=C/c4ccc(C(=O)NCCN(C)C)cc4)ncnc32)c1
2. Cn1c(-c2nonc2N)nc2cnccc21
3. c1cnn2ncc(-c3ccnc(NCCCN4CCOCC4)n3)c2c1
4. OCCCNc1nccc(-c2c(-c3ccc(F)cc3)nn3cc(C(F)(F)F)ccc23)n1
5. CCCNc1cccc(-n2ncc3c(N/N=C/c4ccncc4)ncnc32)c1

Ans.
1. 5.6
2. 6.05
3. 0.96
4. 1.49
5. 0.47

Field: inhibition. Fill in for each record below.
1. N#Cc1cccc(Nc2ncc(-c3ccccc3)o2)c1
2. COc1ccc2ncn(-c3cc(O[C@H](C)c4ccccc4C(F)(F)F)c(C(N)=O)s3)c2c1
3. CNC(=O)c1sc(-n2cnc3cc(OC)c(OC)cc32)cc1OCc1ccccc1C(F)(F)F

Ans.
[10.1, 1.1, 0.35]

---

- tested.on: 3-phosphoinositide-dependent protein kinase 1 (Homo sapiens) (UniProt O15530)
- Sequence (O15530 whole entry): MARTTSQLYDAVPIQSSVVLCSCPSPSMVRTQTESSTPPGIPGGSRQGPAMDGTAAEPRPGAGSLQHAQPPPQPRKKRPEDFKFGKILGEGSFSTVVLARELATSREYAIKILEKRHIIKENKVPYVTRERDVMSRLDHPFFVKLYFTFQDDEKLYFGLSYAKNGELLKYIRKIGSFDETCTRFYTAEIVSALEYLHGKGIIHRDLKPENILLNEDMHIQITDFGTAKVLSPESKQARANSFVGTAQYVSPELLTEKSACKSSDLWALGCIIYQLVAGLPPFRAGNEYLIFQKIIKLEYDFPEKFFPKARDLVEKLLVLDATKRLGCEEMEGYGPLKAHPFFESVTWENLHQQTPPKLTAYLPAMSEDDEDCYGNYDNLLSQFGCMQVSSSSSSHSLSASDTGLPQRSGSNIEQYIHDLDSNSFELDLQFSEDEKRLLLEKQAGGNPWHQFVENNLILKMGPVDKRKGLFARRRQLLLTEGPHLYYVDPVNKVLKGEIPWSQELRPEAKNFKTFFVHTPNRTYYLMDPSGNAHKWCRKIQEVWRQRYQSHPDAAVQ
- run.conditions: at 0.1 µM
endpoint.name: inhibition (%)
Numbers only, in %.

Example entries begin here.
molecule	units.symbol	inhibition
Cc1cc(O)cc(C)c1/C=C/c1cncc(C(N)=O)c1	%	1.65
COc1cc(N2CCN(C(C)C)CC2)ccc1Nc1nc(Nc2cccc(F)c2C(=O)O)c2cc[nH]c2n1	%	2.24
COc1cccc(-n2ncc3c(N/N=C/c4ccc(C(=O)NCCN(C)C)cc4)ncnc32)c1	%	2.52
CC1=C(C(=O)Nc2ccc3[nH]nc(C)c3c2)C(c2ccc(C(F)(F)F)cc2)CC(=O)N1 (centres undefined)	%	1.14
OCCCNc1nccc(-c2c(-c3ccc(F)cc3)nn3cc(C(F)(F)F)ccc23)n1	%	2.27

Below is a list of molecules. For each, state its recorded inhibition.
1. COc1cc(N2CCN(C(C)C)CC2)ccc1Nc1nc(Nc2cccc3ncccc23)c2cc[nH]c2n1
2. CS(=O)(=O)CCNCc1ccoc1-c1ccc2ncnc(Nc3ccc(OCc4ccccc4)cc3)c2c1
3. Cc1cc(O)cc(C)c1/C=C/c1cncc(C(=O)OC(C)(C)C)c1

Ans.
1: -0.4; 2: 1.23; 3: 1.42

Qu. I'm curious: which inhibition was measured for `Cn1c(-c2nonc2N)nc2cnccc21` tested on 3-phosphoinositide-dependent protein kinase 1 (Homo sapiens) (UniProt O15530)?;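 note: values are mean inhibition of PDK1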
Ans. 4.21

---

- tested.on: Protein kinase C eta type (Homo sapiens)
- run.conditions: at 0.1 µM
Kindly supply the reported inhibition values for the records listed here.
Numbers only, in %.

Consider the following illustrative entries.
compound	inhibition [%]
COc1cccc(-n2ncc3c(N/N=C/c4ccc(C(=O)NCCN(C)C)cc4)ncnc32)c1	2.52
CN(C)CCNC(=O)Nc1ccc(N(C)c2ccnc(Nc3ccc(CS(C)(=O)=O)cc3)n2)cc1	5.94
CC(C)c1ccc(-c2cc(-c3c[nH]nc3-c3ccccn3)ccn2)cc1	1.36
NS(=O)(=O)c1cccc(N/C=C2\C(=O)Nc3ccccc32)c1	1.78
CC1=C(C(=O)Nc2ccc3[nH]ncc3c2)C(c2ccc(F)cc2)N=C(c2ccc(C(F)(F)F)nc2)N1 (configuration not stated)	2.89

For each listed entry, give its inhibition.
1. Cc1nnc(-c2cccc(-c3ccc(C(=O)NCC4CC4)cc3)c2)o1
2. CNC(=O)c1cncc(/C=C/c2ccccc2C)c1
3. N#Cc1ccc2c(-c3ccnc(NC4CC4)n3)c(-c3ccc(F)cc3)nn2c1
4. CCCNc1cccc(-n2ncc3c(N/N=C/c4ccncc4)ncnc32)c1
5. Cc1cc(O)cc(C)c1/C=C/c1cncc(C(N)=O)c1
6. Fc1ccc(Nc2nccc(-c3c(-c4ccc(C(F)(F)F)cc4)nn4ncccc34)n2)cc1F
7. CN(c1ccc(NC(=O)NCCN2CCOCC2)cc1)c1ccnc(Nc2ccc(CS(C)(=O)=O)cc2)n1
8. OCCCNc1nccc(-c2c(-c3ccc(F)cc3)nn3cc(C(F)(F)F)ccc23)n1

Ans.
1. 3.46
2. 4.83
3. 2.95
4. 2.17
5. 1.74
6. 0.94
7. 4.71
8. 3.94

Need inhibition for each of these compounds.
1. COc1cc(Nc2ncc(-c3ccccc3)o2)cc(OC)c1
2. Fc1cccc(COc2ccc(Nc3ncncc3C#Cc3ccccc3)cc2Cl)c1
3. O=C(O[C@H]1CN[C@H](C#Cc2cc3ncnc(Nc4ccc(OCc5cccc(F)c5)c(Cl)c4)c3s2)C1)N1CCOCC1
4. CCS(=O)(=O)c1ccc(OC)c(Nc2ncc(-c3cccc(F)c3)o2)c1
5. COC(=O)Nc1nc2cc(Oc3ccc(NC(=O)Nc4ccccc4)cc3)ccc2[nH]1
6. Cc1c2ccc(N(C)c3ccnc(Nc4cccc(S(N)(=O)=O)c4)n3)cc2nn1C
7. CCn1c(-c2nonc2N)nc2cncc(C(=O)NCCNC)c21

Ans.
1: 4.07; 2: 0.23; 3: 2.88; 4: 3.12; 5: 2.8; 6: 4.05; 7: 73.9

Please look at the items below and tell me inhibition for each one, in order.
1. CCN1CCC(C(=O)Nc2n[nH]c3nnc(-c4cccc(F)c4F)cc23)CC1
2. CCOc1ccc2c(-c3ccnc(Nc4cc(OC)cc(C(F)(F)F)c4)n3)cnn2n1
3. CS(=O)(=O)Nc1ccc(-c2ccc3c(NC(=O)C4CC4)n[nH]c3c2)cc1
4. CS(=O)(=O)CCNCc1ccc(-c2ccc3ncnc(Nc4ccc(OCc5ccccc5)cc4)c3c2)o1
5. c1ccc(-c2n[nH]cc2-c2ccnc(-c3ccc(OCCn4ccnc4)cc3)c2)nc1

Ans.
1. 0.24
2. 1.53
3. 4.05
4. 3.12
5. -2.29

Field: inhibition. Fill in for each record below.
1. CN1CCC(n2cnc(-c3ccc(F)cc3)c2-c2ccnc(NCCO)n2)CC1
2. COc1cc(N2CCN(C(C)C)CC2)ccc1Nc1nc(Nc2cccc(F)c2C(=O)O)c2cc[nH]c2n1

Ans.
3.08
2.71
